Dihydroorotate dehydrogenase (Plasmodium falciparum) IC50, compiled from various sources.
One number for each entry, in µM.

>  <Smiles>
Cc1cc(Nc2cccc(Cl)c2)n2nc(CO)nc2n1

>  <Measured result>
6.1

$$$$
>  <Smiles>
C/C(O)=C(\C#N)C(=O)Nc1ccc(-c2cccc(Cl)c2)cc1C(F)(F)F

>  <Measured result>
57.2

$$$$
>  <Smiles>
Cc1cc(Nc2ccc(S(F)(F)(F)(F)F)c(F)c2)n2nc(C(C)(F)F)nc2n1

>  <Measured result>
0.01

$$$$
>  <Smiles>
CN(C(=O)c1ccc2cc(Br)ccc2c1)c1ccccc1C(=O)O

>  <Measured result>
93.4

$$$$

# batch size: 7; output IC50 per entry
1. Cc1cccc(NC(=O)c2cccc([N+](=O)[O-])c2C)c1
2. Cc1cc(Nc2cnc3ccccc3c2)n2ncnc2n1
3. C/C(O)=C(\C#N)C(=O)Nc1ccc(-c2cccc(Cl)c2Cl)cc1
4. Cc1c(C(=O)Nc2cccc(Br)c2)cccc1[N+](=O)[O-]
5. Cc1ccc(CSc2nc3[nH]c(C)cc(=O)n3n2)cc1
6. Cc1nc2c(Br)cccc2n1-c1ccc(C(=O)NC2CC2)s1
7. Cc1nc2cc(OC(F)(F)F)ccc2n1-c1ccc(C(=O)NC2CC2)s1

Response:
1: 0.302; 2: 1.7; 3: 27.2; 4: 0.1; 5: 26; 6: 0.021; 7: 0.022

# batch size: 6; output IC50 per entry
1. O=C(Nc1nc2ccccc2s1)c1ccc(Cl)cc1Cl
2. FC(F)(F)c1cc(Nc2ccc3ccccc3c2)n2ncnc2n1
3. Cc1nc2c(Cl)cc(F)cc2n1-c1ccc(C(=O)NC2CC2)s1
4. Cc1cc(Nc2ccc(C(F)(F)F)cc2)n2nc(CC3CC3)nc2n1
5. Cc1cc(O)n2nc(SCc3c(Cl)cccc3Cl)nc2n1
6. Cc1cc(F)c2ncn(-c3ccc(C(=O)NC4CC4)s3)c2c1

Response:
1: 4.67; 2: 0.21; 3: 0.025; 4: 1.7; 5: 3.5; 6: 0.017

# batch size: 4; output IC50 per entry
1. O=C(NC1CC1)c1ccc(-n2cnc3cc(C(F)(F)F)ccc32)s1
2. Cc1nc2c(N(C)C)cccc2n1-c1ccc(C(=O)NC2CC2)s1
3. Cc1cc(Nc2ccc(Cl)cc2)n2nc(S(C)(=O)=O)nc2n1
4. Cc1cccc2nc(C)n(-c3ccc(C(=O)NC4CC4)s3)c12

Response:
0.019
0.181
0.045
0.609

---

the protein given by its sequence IC50, compiled from various sources.
Protein target, amino acids: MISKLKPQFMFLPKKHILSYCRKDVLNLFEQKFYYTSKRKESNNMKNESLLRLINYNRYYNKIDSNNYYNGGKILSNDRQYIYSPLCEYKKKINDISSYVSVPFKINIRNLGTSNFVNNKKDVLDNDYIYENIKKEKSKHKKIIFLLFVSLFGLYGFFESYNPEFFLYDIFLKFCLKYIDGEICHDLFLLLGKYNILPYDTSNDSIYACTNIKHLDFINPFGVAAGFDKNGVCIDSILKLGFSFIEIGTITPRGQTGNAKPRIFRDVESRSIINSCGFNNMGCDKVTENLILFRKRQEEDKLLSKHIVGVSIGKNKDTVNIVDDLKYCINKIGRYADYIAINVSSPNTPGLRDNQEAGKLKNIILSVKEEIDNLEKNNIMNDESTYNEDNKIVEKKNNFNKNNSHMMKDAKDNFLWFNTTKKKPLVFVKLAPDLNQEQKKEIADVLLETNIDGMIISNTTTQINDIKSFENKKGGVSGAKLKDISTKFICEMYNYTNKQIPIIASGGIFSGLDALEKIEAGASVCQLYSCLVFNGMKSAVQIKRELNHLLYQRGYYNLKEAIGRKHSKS

>  <Smiles>
Cc1cc(Nc2cccc(Cl)c2)n2nc(OCCN(C)C)nc2n1

>  <Study target>
the protein given by its sequence

>  <Quantity measured>
IC50

>  <Measured result>
> 10 µM

$$$$
>  <Smiles>
Cc1cc(Nc2ccc(C(F)(F)F)cc2)n2nc(OCCN(C)C)nc2n1

>  <Study target>
the protein given by its sequence

>  <Quantity measured>
IC50

>  <Measured result>
> 10 µM

$$$$
>  <Smiles>
Cc1cc(Nc2ccc(Cl)cc2)n2nc(OCCN)nc2n1

>  <Study target>
the protein given by its sequence

>  <Quantity measured>
IC50

>  <Measured result>
> 10 µM

$$$$
>  <Smiles>
CCc1cc(O)n2nc(SCc3ccc(Cl)cc3)nc2n1

>  <Study target>
the protein given by its sequence

>  <Quantity measured>
IC50

>  <Measured result>
> 100 µM

$$$$
>  <Smiles>
CCOC(=O)c1sc(Nc2ccc(Cl)c(C(F)(F)F)c2)nc1-c1ccccc1

>  <Study target>
the protein given by its sequence

>  <Quantity measured>
IC50

>  <Measured result>
> 10 µM

$$$$

Request: Using the record for CC(=O)c1sc(Nc2ccccc2)nc1C , report its IC50.
Response: > 10 µM
